experimental system: T1, human HER3-Fc (R&D Systems, 348-RB) (human, UniProt P21860 20-643)
T1 construct: Bought; also called hHER3-Fc; Fc-HER3; Fc part of the bought chimera not given, not described
assay remarks: SPR, HER3-Fc captured by anti-Fc
pKd: −log10 of the molar value.
property measured: pKd

binder	pKd
04C07 (VHH, also called HER3MS04C07; HER3MS004C07) VHH: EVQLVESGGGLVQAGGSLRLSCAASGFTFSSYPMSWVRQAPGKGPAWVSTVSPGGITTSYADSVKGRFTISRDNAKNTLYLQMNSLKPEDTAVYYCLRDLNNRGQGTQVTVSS	9.66
21F06 (VHH, c-myc, His6-tagged form as expressed; also called 21F6; HER3MS21F06) VHH: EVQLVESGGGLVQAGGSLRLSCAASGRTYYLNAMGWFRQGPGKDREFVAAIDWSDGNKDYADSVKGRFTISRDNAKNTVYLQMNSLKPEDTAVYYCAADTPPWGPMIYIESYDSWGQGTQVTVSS	9.92
23F05 (VHH) VHH: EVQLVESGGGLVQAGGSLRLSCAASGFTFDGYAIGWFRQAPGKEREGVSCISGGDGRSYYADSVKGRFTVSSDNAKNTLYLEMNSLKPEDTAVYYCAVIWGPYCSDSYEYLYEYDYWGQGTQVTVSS	9.00
18F05 (VHH, also called 18F5) VHH: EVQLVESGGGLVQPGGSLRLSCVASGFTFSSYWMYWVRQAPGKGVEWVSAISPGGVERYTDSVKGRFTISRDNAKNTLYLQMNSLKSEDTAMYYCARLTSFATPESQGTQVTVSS	9.62
18E08 (VHH) VHH: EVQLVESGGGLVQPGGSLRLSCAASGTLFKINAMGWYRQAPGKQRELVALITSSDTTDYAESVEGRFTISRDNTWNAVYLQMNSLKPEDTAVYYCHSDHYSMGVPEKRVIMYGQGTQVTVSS	7.27
18G11 (VHH, c-myc, His6-tagged form as expressed; also called HER3MS18G11; HER3MS018G11) VHH: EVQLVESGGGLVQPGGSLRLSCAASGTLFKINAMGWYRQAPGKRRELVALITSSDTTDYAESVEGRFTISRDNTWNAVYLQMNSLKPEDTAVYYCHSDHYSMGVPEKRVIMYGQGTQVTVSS	8.00

P: 17E08 (VHH) VHH: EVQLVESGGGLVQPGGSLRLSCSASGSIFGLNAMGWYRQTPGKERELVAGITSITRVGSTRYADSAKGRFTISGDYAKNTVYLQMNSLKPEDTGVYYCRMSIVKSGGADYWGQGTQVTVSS
Q: 21B02 (VHH) VHH: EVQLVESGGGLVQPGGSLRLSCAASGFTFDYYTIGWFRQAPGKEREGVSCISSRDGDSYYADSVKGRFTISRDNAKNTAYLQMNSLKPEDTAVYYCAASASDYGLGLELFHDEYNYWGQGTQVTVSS
Prompt: Select one: P or Q . Criterion: greater recorded pKd. Your choice should be expressed through its label.
Response: P
